tested system: MCL-1/Bim interaction (recombinant human MCL-1 protein, residues 171-327; biotinylated human Bim peptide, residues 51-76) (Homo sapiens (Human))
Sequence (Q07820 171-327): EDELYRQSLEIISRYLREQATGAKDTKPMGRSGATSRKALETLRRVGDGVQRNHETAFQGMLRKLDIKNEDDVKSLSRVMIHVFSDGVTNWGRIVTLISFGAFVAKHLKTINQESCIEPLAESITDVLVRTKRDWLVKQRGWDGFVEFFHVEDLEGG
method summary: MCL-1/Bim Binding AlphaLISA Assay
settings: 0.0625 nM 6xHis-Mcl-1 (171-327), 0.0625 nM biotinylated-Bim peptide
Response field label takes rule met when IC50 is strictly below 60 pM and rule not met in all other cases.

{"columns": ["structure smiles", "assigned label"],
 "data": [
  ["CCO[C@H]1/C=C/C[C@H](C)C[S@@](=O)(NC(=O)c2cn(C)nc2OC)=NC(=O)c2ccc3c(c2)N(C[C@@H]2CC[C@H]21)C[C@@]1(CCCc2cc(Cl)ccc21)CO3", "rule not met"],
  ["CO[C@H]1/C=C/C[C@H](C)C[S@@](=O)(NC(=O)N2CC(C(C)(C)O)C2)=NC(=O)c2ccc3c(c2)N(C[C@@H]2CC[C@H]21)C[C@@]1(CCCc2cc(Cl)ccc21)CO3", "rule met"],
  ["CO[C@H]1/C=C/C[C@H](C)C[S@@](=O)(NC(=O)N[C@@H]2C[C@H]2C2CCOCC2)=NC(=O)c2ccc3c(c2)N(C[C@@H]2CC[C@H]21)C[C@@]1(CCCc2cc(Cl)ccc21)CO3", "rule not met"],
  ["COC[C@H]1C[C@H]1NC(=O)N[S@@]1(=O)=NC(=O)c2ccc3c(c2)N(C[C@@H]2CC[C@H]2[C@@H](OC)/C=C/C[C@H](C)C1)C[C@@]1(CCCc2cc(Cl)ccc21)CO3", "rule met"],
  ["COc1nn(C)cc1C(=O)N[S@@]1(=O)=NC(=O)c2ccc3c(c2)N(C[C@@H]2CC[C@H]2[C@@H](OC)/C=C/[C@H](O)[C@H](C)C1)C[C@@]1(CCCc2cc(Cl)ccc21)CO3", "rule met"],
  ["CO[C@H]1/C=C/CCC[S@@](=O)(NC(=O)CCc2ncsc2C)=NC(=O)c2ccc3c(c2)N(C[C@@H]2CC[C@H]21)C[C@@]1(CCCc2cc(Cl)ccc21)CO3", "rule not met"],
  ["CO[C@H]1/C=C/C[C@H](C)C[S@@](=O)(NC(=O)N[C@@H]2C[C@H]2C(F)F)=NC(=O)c2ccc3c(c2)N(C[C@@H]2CC[C@H]21)C[C@@]1(CCCc2cc(Cl)ccc21)CO3", "rule not met"],
  ["CO[C@H]1/C=C/C[C@H](C)C[S@@](=O)(NC(=O)N[C@H]2C[C@H](OC)C2)=NC(=O)c2ccc3c(c2)N(C[C@@H]2CC[C@H]21)C[C@@]1(CCCc2cc(Cl)ccc21)CO3", "rule not met"]
]}

Decide: IC50 of COC[C@@H]1C[C@@H]1NC(=O)N[S@@]1(=O)=NC(=O)c2ccc3c(c2)N(C[C@@H]2CC[C@H]2[C@@H](OC)/C=C/C[C@H](C)C1)C[C@@]1(CCCc2cc(Cl)ccc21)CO3 strictly below 60 pM? rule not met

Decide: IC50 of CO[C@H]1/C=C/C[C@H](C)C[S@@](=O)(NC(=O)c2ccn(C3CC3)c2)=NC(=O)c2ccc3c(c2)N(C[C@@H]2CC[C@H]21)C[C@@]1(CCCc2cc(Cl)ccc21)CO3 strictly below 60 pM? rule not met

###

tested system: MCL-1/Bim interaction (recombinant human MCL-1 protein, residues 171-327; biotinylated human Bim peptide, residues 51-76) (Homo sapiens (Human))
method summary: MCL-1/Bim Binding AlphaLISA Assay
settings: 0.0625 nM 6xHis-Mcl-1 (171-327), 0.0625 nM biotinylated-Bim peptide
Entries and their log10(IC50)
Hello, just confirming the data are log10 of IC50 with units of nM.

{"columns": ["molecule", "log10(IC50)"],
 "data": [
  ["COC1CCn2cc(C(=O)N[S@@]3(=O)=NC(=O)c4ccc5c(c4)N(C[C@@H]4CC[C@H]4[C@@H](OC)/C=C/C[C@H](C)C3)C[C@@]3(CCCc4cc(Cl)ccc43)CO5)nc2C1 (stereo partly shown) [Example 302]", -1.04]
]}

--- query ---
molecule COc1nn(C)cc1C(=O)N[S@@]1(=O)=NC(=O)c2ccc3c(c2)N(C[C@@H]2CC[C@H]2[C@@H](OC)CCC[C@H](C)C1)C[C@@]1(CCCc2cc(Cl)ccc21)CO3 [Example 240] , log10(IC50) observed: -1.74
